target: 5-HT2B receptor (Homo sapiens, UniProt P41595); construct: host or cells: CHO-K1; assay: 5-HT2B receptor antagonism, inhibition of 5-HT stimulated IP-1 accumulation (HTRF) in CHO-K1 cells; type: cell-based; details: 0.1 uM, % inhibition of 5-HT (5 nM) induced effect
Sequence (P41595 whole entry): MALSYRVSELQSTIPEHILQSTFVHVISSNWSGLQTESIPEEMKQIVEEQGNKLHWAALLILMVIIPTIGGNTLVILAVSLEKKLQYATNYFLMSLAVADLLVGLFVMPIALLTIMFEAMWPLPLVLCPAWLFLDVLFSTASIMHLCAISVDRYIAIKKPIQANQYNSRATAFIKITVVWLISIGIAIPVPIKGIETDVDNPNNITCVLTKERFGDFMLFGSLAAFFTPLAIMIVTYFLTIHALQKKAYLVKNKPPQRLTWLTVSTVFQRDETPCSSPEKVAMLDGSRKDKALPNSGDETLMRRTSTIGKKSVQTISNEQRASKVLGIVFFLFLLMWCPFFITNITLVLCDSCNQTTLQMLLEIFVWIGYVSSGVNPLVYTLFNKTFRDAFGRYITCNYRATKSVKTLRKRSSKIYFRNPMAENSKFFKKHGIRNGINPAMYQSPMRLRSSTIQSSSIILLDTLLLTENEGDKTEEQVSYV
Observed property: inhibition at 0.1 µM (%)
Unit % implied. Number only.

{"Compound": "C[C@@H]1CN(C(=N)N)N=C1c1cccc(Cl)c1O (single isomer, unassigned) [Example 73]", "Unit abbreviation": "%", "inhibition at 0.1 µM": 97}
{"Compound": "C[C@@H]1CN(C(=N)NCc2ccccc2)N=C1c1cccc(Cl)c1O (single isomer, unassigned) [Example 76]", "Unit abbreviation": "%", "inhibition at 0.1 µM": 99}
{"Compound": "N=C(N)N1CCC(c2cccc3ccccc23)=N1 [Example 9]", "Unit abbreviation": "%", "inhibition at 0.1 µM": 76}

Prompt: Please look up its inhibition at 0.1 µM: CC1CN(C(=N)N)N=C1c1ccccc1O.Cl (stereo not drawn) [Example 17]
Completion: 96

Prompt: # iterate: Cl.N=C(N)N1CCC(c2ccccc2O)=N1 [Example 3]
Completion: 38

Prompt: Same for N=C(NCc1ccccc1)N1CCC(c2ccccc2O)=N1 [Example 22]
Completion: 88

Prompt: How about this compound: N=C(NCc1ccccc1)N1CCC(c2ccccc2Cl)=N1 [Example 21]
Completion: 41

Prompt: And COc1ccccc1C1=NN(C(=N)N)CC1 [Example 1] ?
Completion: 0

Prompt: Could you do the same for C[C@@H]1CN(C(=N)N)N=C1c1ccccc1O (single isomer, unassigned) [Example 38] , please?
Completion: 100

Where do these numbers come from? They come from patent US10544103B2.
